quantity: Kd (µM)
API: value field is a number in µM; no unit string.

Ask: Short answer please: Kd, SARS-CoV-2 3CLpro (Severe acute respiratory syndrome coronavirus 2), entry O=C([O-])[C@H](O)[C@@H](O)[C@H](O)[C@H](O)CO.O=C([O-])[C@H](O)[C@@H](O)[C@H](O)[C@H](O)CO.[Zn+2] [Zn^2+, zinc gluconate]
Reply: 4.08

====

molecular target: UniProt:P0DTD1; type: biochemical; details: read-out: IC50, 3CLpro activity; 0.5 μM WT-3CLpro, 10 μM substrate
quantity: IC50 (nM)
API: value field is a number in nM; no unit string.

Ask: What does the record list as IC50 for O=C([O-])[C@H](O)[C@@H](O)[C@H](O)[C@H](O)CO.O=C([O-])[C@H](O)[C@@H](O)[C@H](O)[C@H](O)CO.[Zn+2] [Zn^2+, zinc gluconate] ?
Reply: 540

Source: paper PMC8886686
